Documented inhibition in vivo at 30 mg/kg across a set of molecules
test system: Mus musculus; assay: Inhibition of trinitrochlorobenzene-induced contact hypersensitivity in 1 hr before pretreated CD1 mouse assessed as ear swelling at 30 mg/kg, po; type: functional

| Compound Structure | inhibition in vivo at 30 mg/kg |
| --- | --- |
| O=C(Nc1ccc(-n2nc(C(F)(F)F)cc2C(F)(F)F)cc1)c1cccnc1 | 62% |
| O=C(Nc1ccc(-n2nc(C(F)(F)F)cc2C(F)(F)F)cc1)c1cncc(Cl)c1 | 42% |
| O=C(Nc1ccc(-n2nc(C(F)(F)F)cc2C(F)(F)F)cc1)c1cnccc1Cl | -18% |
| Cc1nnsc1C(=O)Nc1ccc(-n2nc(C(F)(F)F)cc2Cl)cc1 | 42% |
| Nc1cncc(C(=O)Nc2ccc(-n3nc(C(F)(F)F)cc3C(F)(F)F)cc2)c1 | 59% |

---

Documented IC50 across a set of compounds
test: Inhibition of VOC channel-mediated calcium influx in […] PC12-h5 cells; assay type: cell-based; settings: Rattus norvegicus, PC-12

| Compound Structure | IC50 / µM |
| --- | --- |
| O=C(Nc1ccc(-n2nc(C(F)(F)F)cc2C(F)(F)F)cc1)c1cnccc1Cl | 5.1 |
| O=C(Nc1ccc(-n2nc(C(F)(F)F)cc2C(F)(F)F)cc1)c1ccncc1 | 10 |
| O=C(Nc1ccc(-n2nc(C(F)(F)F)cc2C(F)(F)F)cc1)c1cccnc1Cl | 4.5 |
| Cc1ccc(-c2cc(C(F)(F)F)nn2-c2ccc(NC(=O)c3snnc3C)cc2)cc1 | 2.5 |
| COc1ccncc1C(=O)Nc1ccc(-n2nc(C(F)(F)F)cc2C(F)(F)F)cc1 | 4.8 |

---

test system: Jurkat; assay: Inhibition of PHA-induced IL2 production in human Jurkat T lymphocytes; assay type: functional, cell-based
Please respond with y when measured IC50 is strictly beneath 20 nM, and with n in all other cases.

| Compound Structure | Assay System | Category Label |
| --- | --- | --- |
| Cc1ccc(C(=O)Nc2ccc(-n3nc(C(F)(F)F)cc3C(F)(F)F)cc2)cn1 | Jurkat | n |
| Cc1nnsc1C(=O)Nc1ccc(-n2nc(C(F)(F)F)cc2Br)cc1 | Jurkat | y |
| Nc1cncc(C(=O)Nc2ccc(-n3nc(C(F)(F)F)cc3C(F)(F)F)cc2)c1 | Jurkat | n |
| Cc1nnsc1C(=O)Nc1ccc(-n2nc(C(F)(F)F)cc2C(F)(F)F)cc1 | Jurkat | y |
| Cc1nnsc1C(=O)Nc1ccc(-n2nc(C(F)(F)F)cc2Cl)cc1 | Jurkat | y |
| O=C(Nc1ccc(-n2nc(C(F)(F)F)cc2C(F)(F)F)cc1)c1ccncc1 | Jurkat | y |
| Cc1nnsc1C(=O)Nc1ccc(-n2nc(C(F)(F)F)cc2C)cc1 | Jurkat | y |
| O=C(Nc1ccc(-n2nc(C(F)(F)F)cc2C(F)(F)F)cc1)c1cncc(Br)c1 | Jurkat | n |
| Cc1cc(C)c(C(=O)Nc2ccc(-n3nc(C(F)(F)F)cc3C(F)(F)F)cc2)cn1 | Jurkat | n |
| O=C(Nc1ccc(-n2nc(C(F)(F)F)cc2C(F)(F)F)cc1)c1cncc(F)c1 | Jurkat | y |
| O=C(Nc1ccc(-n2nc(C(F)(F)F)cc2C(F)(F)F)cc1)c1cnccc1Cl | Jurkat | y |
| O=C(Nc1ccc(-n2nc(C(F)(F)F)cc2C(F)(F)F)cc1)c1cncc(Cl)c1 | Jurkat | n |
| O=C(Nc1ccc(-n2nc(C(F)(F)F)cc2C(F)(F)F)cc1)c1cccnc1 | Jurkat | n |

---

assay: Inhibition of VOC channel-mediated calcium influx in […] PC12-h5 cells; type: cell-based; settings: Rattus norvegicus, PC-12
pIC50: −log10 of the molar value.
Documented pIC50 across a set of compounds

| Compound Structure | pIC50 |
| --- | --- |
| Cc1nnsc1C(=O)Nc1ccc(-n2nc(C(F)(F)F)cc2Br)cc1 | 5.59 |
| COc1ncccc1C(=O)Nc1ccc(-n2nc(C(F)(F)F)cc2C(F)(F)F)cc1 | 5.54 |
| Cc1nnsc1C(=O)Nc1ccc(-n2nc(C(F)(F)F)cc2Cl)cc1 | 5.54 |
| O=C(Nc1ccc(-n2nc(C(F)(F)F)cc2C(F)(F)F)cc1)c1cncs1 | 5.00 |
| Cc1nnsc1C(=O)Nc1ccc(-n2nc(C(F)(F)F)c3c2CCC3)cc1 | 5.46 |
| Cc1ccncc1C(=O)Nc1ccc(-n2nc(C(F)(F)F)cc2C(F)(F)F)cc1 | 5.20 |
| Cc1nnsc1C(=O)Nc1ccc(-n2nc(C(F)(F)F)cc2C(F)(F)F)cc1 | 5.33 |
| O=C(Nc1ccc(-n2nc(C(F)(F)F)cc2C(F)(F)F)cc1)c1cnccc1C(F)(F)F | 5.70 |
| Cc1cncc(C(=O)Nc2ccc(-n3nc(C(F)(F)F)cc3C(F)(F)F)cc2)c1 | 5.51 |
| Nc1ccncc1C(=O)Nc1ccc(-n2nc(C(F)(F)F)cc2C(F)(F)F)cc1 | 5.62 |
